Prostaglandin G/H synthase 2 (Homo sapiens, UniProt P35354): reported IC50 for various compounds.
Sequence (P35354 whole entry): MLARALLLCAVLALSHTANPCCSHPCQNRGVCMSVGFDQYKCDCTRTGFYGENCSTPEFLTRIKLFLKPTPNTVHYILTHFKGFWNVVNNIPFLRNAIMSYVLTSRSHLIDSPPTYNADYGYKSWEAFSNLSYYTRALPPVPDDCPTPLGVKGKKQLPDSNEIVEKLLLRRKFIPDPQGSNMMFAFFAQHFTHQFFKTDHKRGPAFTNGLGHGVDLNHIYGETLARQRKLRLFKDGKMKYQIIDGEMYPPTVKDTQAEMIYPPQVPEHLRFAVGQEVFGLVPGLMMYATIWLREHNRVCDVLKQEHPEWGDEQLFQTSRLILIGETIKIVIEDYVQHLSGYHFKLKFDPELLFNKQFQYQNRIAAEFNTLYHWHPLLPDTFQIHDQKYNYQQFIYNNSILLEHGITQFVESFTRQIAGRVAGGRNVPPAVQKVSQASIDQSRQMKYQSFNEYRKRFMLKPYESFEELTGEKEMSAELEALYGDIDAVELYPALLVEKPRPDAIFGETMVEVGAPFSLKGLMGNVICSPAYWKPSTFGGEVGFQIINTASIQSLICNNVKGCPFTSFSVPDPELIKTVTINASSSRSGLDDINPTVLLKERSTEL
measured.endpoint: IC50 (µM)

Here is how some compounds turned out for IC50.
- compound: "COc1ccc(N2CCN(CC3=NOC(C)(C)CC3c3ccccc3)CC2)cc1 (centres undefined)"
  unit.annotation: "µM"
  IC50: 2.6
- compound: "Fc1ccc2c(C3CCN(CC4=NO[C@@H]5CCCC[C@@H]5[C@H]4c4ccccc4)CC3)noc2c1"
  unit.annotation: "µM"
  IC50: 4.7

[I] c1ccc([C@H]2C(Cn3c4ccccc4c4ccccc43)=NO[C@@H]3CCCC[C@H]23)cc1
[II] CC1(C)CC(c2ccccc2)C(CN2CCN(c3cccc(Cl)c3Cl)CC2)=NO1 (centres undefined)
*Q* Pick one, I or II : lowest reported IC50. I would appreciate it if you answered with the label of your choice.
*A* II
(II: 6.8 µM, I: 9.9 µM)
